src = PubChem BioAssay

Listed compounds paired with reported z-score
Test: resazurin metabolic signal in HepG2 cells – cell-based, resazurin fluorescence, 24 h, PK04 Diversity Set, profiling panel (AID 1172); further: test concentration not given here
Conditions: HepG2 viability, higher = more signal

{"Compound": "CC(C)C[C@@H]1NC(=O)[C@@]23C(=O)N[C@@H](Cc4ccccc4)C2[C@H](C)[C@@]2(C)O[C@H]2C3/C=C/C/C=C\\CNC(=O)CNC1=O (some centres not stated)", "z-score": -0.62}
{"Compound": "C=CCNC(=O)[C@H]1[C@@H]2C(=O)O[C@@H](c3ccccc3)[C@@H](c3ccccc3)N2[C@@H](c2ccc(OCCO)cc2)[C@]12C(=O)Nc1ccc(C#CC3(O)CCCCCC3)cc12", "z-score": -0.311}
{"Compound": "COCCCNC(=O)[C@@H]1c2ccccc2C(=O)N(Cc2ccc(OC(F)(F)F)cc2)[C@H]1c1ccc(CO)cc1", "z-score": 0.201}
{"Compound": "COc1ccc(C(O)C2C=CC3C(=O)N(c4ccccc4)C(=O)C3N2Nc2ccc([N+](=O)[O-])cc2)c2ccccc12 (configuration not stated)", "z-score": 0.248}
{"Compound": "CC(C)(C)N1CC=CC23O[C@@H]4/C=C\\CCCOC(=O)C4[C@H]2C(=O)N(CCCCCO)[C@@H]3C1=O (some centres not stated)", "z-score": -0.144}
{"Compound": "C=CCNC(=O)[C@H]1[C@@H]2C(=O)O[C@@H](c3ccccc3)[C@@H](c3ccccc3)N2[C@@H](c2ccc(OCCO)cc2)[C@]12C(=O)Nc1ccccc12", "z-score": 0.429}
{"Compound": "C=C(CCCC)/C(=C/C[C@@H](OC(C)=O)c1ccc(CO)o1)c1cnc2ccccc2c1", "z-score": -1.53}
